Data origin: patent US10213433B2

Record type: Ki measurement. Applies to: Bcl-2 protein (Homo sapiens (Human), UniProt P10415)

Solved cases (3 shown):
compound: CC1(C)CCC(CN2CCN(c3ccc(C(=O)NS(=O)(=O)c4ccc(NC[C@@H]5CC[C@@H](O)C5)c([N+](=O)[O-])c4)c(Oc4cnc5[nH]ccc5c4)c3)CC2)=C(c2ccc(Cl)cc2)C1
Ki: < 0.01 nM
--
compound: O=C(NS(=O)(=O)c1cnc(OCC2(F)CCN(C3COC3)CC2)c(Cl)c1)c1ccc(N2CCN(CC3=C(c4ccc(Cl)cc4)CC4(CC3)CC4)CC2)cc1Oc1cnc2[nH]ccc2c1
Ki: < 0.01 nM
--
compound: CC1(C)CCC(CN2CCN(c3ccc(C(=O)NS(=O)(=O)c4cnc(OCC5CCOCC5)c(Cl)c4)c(Oc4cnc5[nH]ccc5c4)c3)CC2)=C(c2ccc(Cl)cc2)C1
Ki: < 0.01 nM

## Task Can you look up the measured Ki of CC1(C)CCC(CN2CCN(c3ccc(C(=O)NS(=O)(=O)c4cnc(OC[C@]5(F)CC[C@@H](O)CC5)c(Cl)c4)c(Oc4cnc5[nH]ccc5c4)c3)CC2)=C(c2ccc(Cl)cc2)C1 for me?
## Result < 0.01 nM

## Task Can you look up the measured Ki of CN1CCOC(CNc2ccc(S(=O)(=O)NC(=O)c3ccc(N4CCN(CC5=C(c6ccc(Cl)cc6)CC(C)(C)CC5)CC4)cc3Oc3cnc4[nH]ccc4c3)cc2[N+](=O)[O-])C1 (stereo not shown) for me?
## Result < 0.01 nM

## Task Can you look up the measured Ki of CC1(C)CCC(CN2CCN(c3ccc(C(=O)NS(=O)(=O)c4ccc(NCC5CCOC5)c([N+](=O)[O-])c4)c(Oc4cnc5[nH]ccc5c4)c3)CC2)=C(c2ccc(Cl)cc2)C1 (stereo not shown) for me?
## Result < 0.01 nM

## Task Can you look up the measured Ki of CN1CCN(Nc2ccc(S(=O)(=O)NC(=O)c3ccc(N4CCN(CC5=C(c6ccc(Cl)cc6)CC(C)(C)OC5)CC4)cc3Oc3cnc4[nH]ccc4c3)cc2[N+](=O)[O-])CC1 for me?
## Result < 0.01 nM

## Task Can you look up the measured Ki of CC1(C)CCC(CN2CCN(c3ccc(C(=O)NS(=O)(=O)c4ccc(OCC5CCN(C6COC6)CC5)c([N+](=O)[O-])c4)c(Oc4cnc5[nH]ccc5c4)c3)CC2)=C(c2ccc(Cl)cc2)C1 for me?
## Result < 0.01 nM

## Task Can you look up the measured Ki of CC1(C)CCC(CN2CCN(c3ccc(C(=O)NS(=O)(=O)c4cnc(NC[C@H]5CC[C@](C)(O)CC5)c([N+](=O)[O-])c4)c(Oc4cnc5[nH]ccc5c4)c3)CC2)=C(c2ccc(Cl)cc2)C1 for me?
## Result < 0.001 nM

## Task Can you look up the measured Ki of CC1(C)CCC(CN2CCN(c3ccc(C(=O)NS(=O)(=O)c4ccc(NCC5CN(C6COC6)CCO5)c(S(=O)(=O)C(F)(F)F)c4)c(Oc4cnc5[nH]ccc5c4)c3)CC2)=C(c2ccc(Cl)cc2)C1 (stereo not shown) for me?
## Result < 0.01 nM

----------
biological target: Bcl-2 protein (Homo sapiens (Human), UniProt P10415)
Sequence (P10415 whole entry): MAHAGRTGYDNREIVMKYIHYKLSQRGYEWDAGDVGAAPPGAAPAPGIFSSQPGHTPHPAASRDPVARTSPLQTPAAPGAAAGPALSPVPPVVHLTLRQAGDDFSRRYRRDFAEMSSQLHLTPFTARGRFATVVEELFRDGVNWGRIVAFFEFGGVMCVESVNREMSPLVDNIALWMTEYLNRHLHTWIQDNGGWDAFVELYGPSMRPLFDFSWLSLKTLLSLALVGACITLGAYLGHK
pKi: −log10 of the molar value.
observable: pKi

Solved cases (5 shown):
compound: COC(=O)N1CCOC(CNc2ccc(S(=O)(=O)NC(=O)c3ccc(N4CCN(CC5=C(c6ccc(Cl)cc6)CC(C)(C)CC5)CC4)cc3Oc3cnc4[nH]ccc4c3)cc2[N+](=O)[O-])C1 (stereo not shown)
pKi: > 11.00
//
compound: CC1(C)CCC(CN2CCN(c3ccc(C(=O)NS(=O)(=O)c4ccc(OC[C@H]5CC[C@@](C)(O)CC5)c(Cl)c4)c(Oc4cnc5[nH]ccc5c4)c3)CC2)=C(c2ccc(Cl)cc2)C1
pKi: 10.80
//
compound: CC1(C)CCC(CN2CCN(c3ccc(C(=O)NS(=O)(=O)c4ccc(NC5CN(C6CCOC6)C5)c([N+](=O)[O-])c4)c(Oc4cnc5[nH]ccc5c4)c3)CC2)=C(c2ccc(Cl)cc2)C1 (stereo not shown)
pKi: > 11.00
//
compound: COCCOCCN1CC[C@@H](Nc2ccc(S(=O)(=O)NC(=O)c3ccc(N4CCN(CC5=C(c6ccc(Cl)cc6)CC(C)(C)CC5)CC4)cc3Oc3cnc4[nH]ccc4c3)cc2[N+](=O)[O-])C1
pKi: > 11.00
//
compound: CC(=O)N1CCC(Nc2ccc(S(=O)(=O)NC(=O)c3ccc(N4CCN(CC5=C(c6ccc(Cl)cc6)CC(C)(C)CC5)CC4)cc3Oc3cnc4[nH]ccc4c3)cc2[N+](=O)[O-])CC1
pKi: > 11.00

// switching to the query compound
## Task Test system Bcl-2 protein (Homo sapiens (Human), UniProt P10415); read-out pKi; what value for CC1(C)CC(c2ccc(Cl)cc2)=C(CN2CCN(c3ccc(C(=O)NS(=O)(=O)c4ccc(NCC5COCCO5)c([N+](=O)[O-])c4)c(Oc4cnc5[nH]ccc5c4)c3)CC2)CO1 (stereo not shown) ?
## Result > 11.00
